Hi there, I'd appreciate the recorded IC50 for every entry that follows.
# studyTarget: recombinant human CETP protein (Homo sapiens (Human), UniProt P11597)
# Sequence (P11597 18-493): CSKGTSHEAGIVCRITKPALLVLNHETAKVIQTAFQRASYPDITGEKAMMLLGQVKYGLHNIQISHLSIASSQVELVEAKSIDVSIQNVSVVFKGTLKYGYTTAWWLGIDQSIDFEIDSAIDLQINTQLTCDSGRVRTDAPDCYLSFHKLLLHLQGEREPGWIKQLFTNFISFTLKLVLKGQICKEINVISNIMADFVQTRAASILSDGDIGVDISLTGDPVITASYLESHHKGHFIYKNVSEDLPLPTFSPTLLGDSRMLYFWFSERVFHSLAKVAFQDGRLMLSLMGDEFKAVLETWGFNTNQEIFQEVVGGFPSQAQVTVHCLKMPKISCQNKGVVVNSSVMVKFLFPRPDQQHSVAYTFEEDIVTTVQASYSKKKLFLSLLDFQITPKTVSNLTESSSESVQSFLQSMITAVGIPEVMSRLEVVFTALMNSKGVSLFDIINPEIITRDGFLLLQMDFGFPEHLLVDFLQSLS
# runDescription: Test of CETP inhibition activity (in vitro, buffer-based)
# conditionContext: reconstituted HDL with [14C]-labeled cholesteryl ester, acceptor lipoprotein, 37° C.
# Experimental: Test of CETP Inhibition Activity (In Vitro, Buffer-Based) (1) Preparation of Reconstituted HDL […] A recombinant human CETP protein (manufactured by Roar Biomedical Inc.; 4.5 ng), the acceptor lipoprotein described in (2) above (32.5 μg) and 5,5′-dithio-bis-(2-nitrobenzoic acid) (7 mM, 15 μl) were taken in a 96 well plate and the total amount of the mixture was adjusted to 48.5 μl with the PBS solution. […] The IC50 value was calculated from the percentage CETP inhibition.
Numbers only here, please. The scale is nM.

Item CN1CC[C@@H](Oc2cnc(N3CCC(c4nc5c(c(C6CCC(F)(F)CC6)c4C(F)c4ccc(C(F)(F)F)cc4)C(O)CC(C)(C)C5)CC3)nc2)C1 (single isomer, unassigned) has what recorded IC50? 16

How about this compound: CNC(=O)c1cnc(N2CCC(c3nc4c(c(C5CCC(F)(F)CC5)c3[C@@H](F)c3ccc(C(F)(F)F)cc3)[C@@H](O)CC(C)(C)C4)CC2)nc1 (single isomer, unassigned) 32

How about this compound: COc1cnc(N2CCC(c3nc4c(c(C5CCC(F)(F)CC5)c3[C@@H](F)c3ccc(C(F)(F)F)cc3)[C@@H](O)CC(C)(C)C4)CC2)nc1 (single isomer, unassigned) 51

###

# studyTarget: recombinant human CETP protein (Homo sapiens (Human))
# runDescription: Test of CETP inhibition activity (in vitro, buffer-based)
# conditionContext: reconstituted HDL with [14C]-labeled cholesteryl ester, acceptor lipoprotein, 37° C.
Lab note - cut at 0.1 µM for IC50: True if strictly below, False if not.

Determine whether this compound shows IC50 lower than 0.1 µM (ties excluded): CC1(C)Cc2nc(C3CCN(c4ncc(-c5cccc(C(=O)O)c5)cn4)CC3)c([C@@H](F)c3ccc(C(F)(F)F)cc3)c(C3CCC(F)(F)CC3)c2[C@@H](O)C1 True

How about this compound: CC(C)OCc1cnc(N2CCC(c3nc4c(c(C5CCC(F)(F)CC5)c3[C@@H](F)c3ccc(C(F)(F)F)cc3)[C@@H](O)CC(C)(C)C4)CC2)nc1 (single isomer, unassigned) True

How about this compound: CC1(C)Cc2nc(C3CCN(c4ncc(N5CCCCC5)cn4)CC3)c([C@@H](F)c3ccc(C(F)(F)F)cc3)c(C3CCC(F)(F)CC3)c2[C@@H](O)C1 (single isomer, unassigned) True

How about this compound: CC(C)Cc1cnc(N2CCC(c3nc4c(c(C5CCC(F)(F)CC5)c3[C@@H](F)c3ccc(C(F)(F)F)cc3)[C@@H](O)CC(C)(C)C4)CC2)nc1 (single isomer, unassigned) True

How about this compound: CC1(C)Cc2nc(C3CCN(c4ncc(CO)cn4)CC3)c([C@@H](F)c3ccc(C(F)(F)F)cc3)c(C3CCC(F)(F)CC3)c2[C@@H](O)C1 False

How about this compound: CC(C)S(=O)(=O)N(C)Cc1cnc(N2CCC(c3nc4c(c(C5CCC(F)(F)CC5)c3[C@@H](F)c3ccc(C(F)(F)F)cc3)[C@@H](O)CC(C)(C)C4)CC2)nc1 (single isomer, unassigned) True

How about this compound: CN1CCN(c2cnc(N3CCC(c4nc5c(c(C6CCC(F)(F)CC6)c4[C@@H](F)c4ccc(C(F)(F)F)cc4)[C@@H](O)CC(C)(C)C5)CC3)nc2)CC1 (single isomer, unassigned) True

How about this compound: CC(C)Oc1cnc(N2CCC(c3nc4c(c(C5CCC(F)(F)CC5)c3[C@@H](F)c3ccc(C(F)(F)F)cc3)[C@@H](O)CC(C)(C)C4)CC2)nc1 (single isomer, unassigned) True

How about this compound: Cc1noc(-c2cnc(N3CCC(c4nc5c(c(C6CCC(F)(F)CC6)c4[C@@H](F)c4ccc(C(F)(F)F)cc4)[C@@H](O)CC(C)(C)C5)CC3)nc2)n1 (single isomer, unassigned) True

How about this compound: CC1(C)Cc2nc(C3CCN(c4ncc(N5CCOCC5)cn4)CC3)c([C@@H](F)c3ccc(C(F)(F)F)cc3)c(C3CCC(F)(F)CC3)c2[C@@H](O)C1 (single isomer, unassigned) False

###

# studyTarget: recombinant human CETP protein (Homo sapiens (Human), UniProt P11597)
# runDescription: Test of CETP inhibition activity (in vitro, buffer-based)
# conditionContext: reconstituted HDL with [14C]-labeled cholesteryl ester, acceptor lipoprotein, 37° C.
parameter: pIC50
pIC50 is defined as minus the log10 of a concentration measured in mol/L.

Item CC1(C)Cc2nc(C3CCN(c4ncc(N5CCC(O)CC5)cn4)CC3)c([C@@H](F)c3ccc(C(F)(F)F)cc3)c(C3CCC(F)(F)CC3)c2[C@@H](O)C1 (single isomer, unassigned) has what recorded pIC50? 7.34

How about this molecule: CCCCCc1cnc(N2CCC(c3nc4c(c(C5CCC(F)(F)CC5)c3[C@@H](F)c3ccc(C(F)(F)F)cc3)[C@@H](O)CC(C)(C)C4)CC2)nc1 (single isomer, unassigned) 6.61

How about this molecule: CC1(C)Cc2nc(C3CCN(c4ncc(OCCC(F)(F)F)cn4)CC3)c([C@@H](F)c3ccc(C(F)(F)F)cc3)c(C3CCC(F)(F)CC3)c2[C@@H](O)C1 (single isomer, unassigned) 7.51

How about this molecule: CC1(C)Cc2nc(C3CCN(c4ncc(N5CCSCC5)cn4)CC3)c([C@@H](F)c3ccc(C(F)(F)F)cc3)c(C3CCC(F)(F)CC3)c2[C@@H](O)C1 (single isomer, unassigned) 6.91

How about this molecule: CN(CCO)c1cnc(N2CCC(c3nc4c(c(C5CCC(F)(F)CC5)c3[C@@H](F)c3ccc(C(F)(F)F)cc3)[C@@H](O)CC(C)(C)C4)CC2)nc1 (single isomer, unassigned) 7.55

How about this molecule: CC1(C)Cc2nc(C3CCN(c4ncc(OC(F)F)cn4)CC3)c([C@@H](F)c3ccc(C(F)(F)F)cc3)c(C3CCC(F)(F)CC3)c2[C@@H](O)C1 (single isomer, unassigned) 7.38

How about this molecule: CC1(C)Cc2nc(C3CCN(c4ncc(C5=CCCCC5)cn4)CC3)c([C@@H](F)c3ccc(C(F)(F)F)cc3)c(C3CCC(F)(F)CC3)c2[C@@H](O)C1 (single isomer, unassigned) 6.75

How about this molecule: CC1(C)Cc2nc(C3CCN(c4ncc(CCCCC(=O)O)cn4)CC3)c([C@@H](F)c3ccc(C(F)(F)F)cc3)c(C3CCC(F)(F)CC3)c2[C@@H](O)C1 (single isomer, unassigned) 7.72

How about this molecule: CC(C)COc1cnc(N2CCC(c3nc4c(c(C5CCC(F)(F)CC5)c3[C@@H](F)c3ccc(C(F)(F)F)cc3)[C@@H](O)CC(C)(C)C4)CC2)nc1 (single isomer, unassigned) 7.00

How about this molecule: CN(Cc1cnc(N2CCC(c3nc4c(c(C5CCC(F)(F)CC5)c3[C@@H](F)c3ccc(C(F)(F)F)cc3)[C@@H](O)CC(C)(C)C4)CC2)nc1)S(C)(=O)=O (single isomer, unassigned) 8.22

How about this molecule: CC1(C)Cc2nc(C3CCN(c4ncc(CCCC(F)(F)F)cn4)CC3)c([C@@H](F)c3ccc(C(F)(F)F)cc3)c(C3CCC(F)(F)CC3)c2[C@@H](O)C1 (single isomer, unassigned) 7.32

How about this molecule: CC1(C)Cc2nc(C3CCN(c4ncc(OCCCS(C)(=O)=O)cn4)CC3)c([C@@H](F)c3ccc(C(F)(F)F)cc3)c(C3CCC(F)(F)CC3)c2[C@@H](O)C1 (single isomer, unassigned) 7.89

How about this molecule: CSc1cnc(N2CCC(c3nc4c(c(C5CCC(F)(F)CC5)c3[C@@H](F)c3ccc(C(F)(F)F)cc3)[C@@H](O)CC(C)(C)C4)CC2)nc1 (single isomer, unassigned) 7.47

How about this molecule: CC1(C)Cc2nc(C3CCN(c4ncccn4)CC3)c([C@@H](F)c3ccc(C(F)(F)F)cc3)c(C3CCC(F)(F)CC3)c2[C@@H](O)C1 (single isomer, unassigned) 7.08

How about this molecule: CC1(C)Cc2nc(C3CCN(c4ncc(OCCCO)cn4)CC3)c([C@@H](F)c3ccc(C(F)(F)F)cc3)c(C3CCC(F)(F)CC3)c2[C@@H](O)C1 7.80

How about this molecule: CN1CCC(Oc2cnc(N3CCC(c4nc5c(c(C6CCC(F)(F)CC6)c4[C@@H](F)c4ccc(C(F)(F)F)cc4)[C@@H](O)CC(C)(C)C5)CC3)nc2)CC1 (single isomer, unassigned) 8.00

How about this molecule: CC(C)CCOc1cnc(N2CCC(c3nc4c(c(C5CCC(F)(F)CC5)c3[C@@H](F)c3ccc(C(F)(F)F)cc3)[C@@H](O)CC(C)(C)C4)CC2)nc1 (single isomer, unassigned) 6.95

How about this molecule: C[C@@H](O)COc1cnc(N2CCC(c3nc4c(c(C5CCC(F)(F)CC5)c3[C@@H](F)c3ccc(C(F)(F)F)cc3)[C@@H](O)CC(C)(C)C4)CC2)nc1 (single isomer, unassigned) 7.66

How about this molecule: CC(C)/C=C/c1cnc(N2CCC(c3nc4c(c(C5CCC(F)(F)CC5)c3[C@@H](F)c3ccc(C(F)(F)F)cc3)[C@@H](O)CC(C)(C)C4)CC2)nc1 (single isomer, unassigned) 7.27
